The origin of these recorded values is patent US12006330B2.

Target: human orexin-2 receptor (OX2R) (Homo sapiens)
Construct: expressed in transfected cells
Test: Human OX2R IP1 assay
Assay type: cell-based
Conditions: T-Rex CHO cells stably overexpressing human OX2R; IP1 accumulation; 1 hr at 37 degrees C; mean EC50
Experimental Readout: EC50

As a guide, the following entries are already answered.
>>> obs_value("CC(C)(O)C(=O)N1CC[C@H](NS(C)(=O)=O)[C@@H]1Cc1cccc(-c2cc(F)cc(F)c2)c1F [Reference Compound B, reference compound]")
"10 to 1000 nM"
>>> obs_value("Cc1ccc2c(c1C)[C@H]1CC[C@H](CC1)OC[C@H]1[C@@H](NS(C)(=O)=O)CCCN1C(=O)CO2 (stereo in doubt)")
"< 10 nM"
>>> obs_value("Cc1ccnc2c1[C@H]1CC[C@H](CC1)OC[C@H]1[C@@H](NS(C)(=O)=O)CCCN1C(=O)CO2 (stereo in doubt)")
"< 10 nM"
>>> obs_value("O=C1COc2ccccc2[C@H]2CC[C@H](CC2)OCC2[C@@H](NS(=O)(=O)CF)CCCN12 (stereo in doubt)")
"< 10 nM"
>>> obs_value("CC(C)S(=O)(=O)N[C@H]1CCCN2CCOc3ncccc3[C@H]3CC[C@H](CC3)OC[C@@H]12 (stereo in doubt)")
"> 1000 nM"

Here is the next item to consider.
Recorded EC50 of O=S(=O)(N[C@H]1CCCN2CCOc3ncccc3[C@H]3CC[C@H](CC3)OC[C@@H]12)C1CC1 (stereo in doubt) , please.
> 1000 nM

###

Extraction Ratio (ER) listing for selected compounds.
System: human hepatocytes
Assay: Hepatocytes stability assay (human hepatocytes)
Format: in vitro ADME
Conditions: human hepatocytes; scaled hepatic clearance divided by liver blood flow (well-stirred model, fu assumed unity)
Quick one: just the number, no unit, thanks!

As a guide, the following entries are already answered.
>>> obs_value("Cc1cccc2c1[C@H]1CC[C@H](CC1)OCC1[C@@H](NS(=O)(=O)C(C)C)CCN1C(=O)CO2 (stereo in doubt) [Compound 79]")
0.87
>>> obs_value("Cc1c(Cl)ccc2c1[C@H]1CC[C@H](CC1)OCC1[C@@H](NS(=O)(=O)C(C)C)CCCN1C(=O)CO2 (stereo in doubt) [Compound 28]")
0.36
>>> obs_value("Cc1ccc2c(c1)[C@H]1CC[C@H](CC1)OCC1[C@@H](NS(C)(=O)=O)CCCN1CCO2 (stereo in doubt) [Compound 54]")
0.85
>>> obs_value("Cc1ccc2c(c1C)[C@H]1CC[C@H](CC1)OCC1[C@@H](NS(=O)(=O)C(C)C)CCCN1C(=O)CO2 (stereo in doubt) [Compound 76]")
0.59

Recorded Extraction Ratio (ER) of O=C1COc2ccc(Cl)cc2C2CCC(CC2)OC[C@H]2[C@@H](NS(=O)(=O)C3CC3)CCCN12 (stereo in doubt) [Compound 16] , please.
0.47

###

Biological target: UniProt:O43614
Sequence (O43614 1-444): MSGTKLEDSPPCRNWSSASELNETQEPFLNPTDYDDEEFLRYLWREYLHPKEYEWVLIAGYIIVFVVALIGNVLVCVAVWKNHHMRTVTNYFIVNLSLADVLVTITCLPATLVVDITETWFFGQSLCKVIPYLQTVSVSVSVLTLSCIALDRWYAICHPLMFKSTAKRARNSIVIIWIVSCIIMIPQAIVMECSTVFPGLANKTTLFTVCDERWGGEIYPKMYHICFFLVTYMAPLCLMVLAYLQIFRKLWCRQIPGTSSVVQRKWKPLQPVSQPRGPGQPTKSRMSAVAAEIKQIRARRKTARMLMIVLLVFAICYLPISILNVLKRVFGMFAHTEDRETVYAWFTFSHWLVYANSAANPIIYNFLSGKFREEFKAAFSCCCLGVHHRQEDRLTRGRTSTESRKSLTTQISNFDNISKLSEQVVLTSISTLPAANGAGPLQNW
Experiment: Human OX2R IP1 assay
Conditions: T-Rex CHO cells stably overexpressing human OX2R; IP1 accumulation; 1 hr at 37 degrees C; mean EC50
pEC50: −log10 of the molar value.
Experimental Readout: pEC50

Recorded pEC50 of O=C1COc2ncccc2[C@H]2CC[C@H](CC2)OCC2[C@@H](NS(=O)(=O)C(F)(F)F)CCCN12 (stereo in doubt) , please.
> 8.00

Recorded pEC50 of CC(C)S(=O)(=O)N[C@H]1CCCN2CCOc3ccccc3[C@H]3CC[C@H](CC3)OC[C@@H]12 (stereo in doubt) , please.
< 6.00

Recorded pEC50 of C[C@@H](C(F)(F)F)S(=O)(=O)N[C@H]1CCCN2C(=O)COc3ccccc3C3CCC(CC3)OC[C@@H]12 (stereo in doubt) , please.
> 8.00

Recorded pEC50 of Cc1cccc2c1OCCN1CCC[C@H](NS(C)(=O)=O)[C@@H]1CO[C@H]1CC[C@@H]2CC1 (stereo in doubt) , please.
< 6.00
